# System: XF498
# Run description: NCI tumour cell line growth inhibition, 48 h
Activity calls are given as the source filed them. No stated cut-off is given here; in the data, active = GI50 up to about 1.1 µM and inactive = higher.
Quantity measured: GI50

Look over these answered cases.
Compound | Target under test | GI50
COC(=O)C(=O)C(C(=O)Nc1cccc(C)c1C)C1Sc2ccccc2NC1=O (stereo not given) | XF498 | > 25 µM (inactive)
Cc1cccc(C)c1NC(=O)C(=O)Cc1nc2ccccc2s1 | XF498 | > 100 µM (inactive)
Oc1cc(-c2ccccn2)nc2ccc(Cl)cc12 | XF498 | 21.5 µM (inactive)
CN1CCCC2[C@@H]3CCC4=C(O)C(=O)CC[C@]4(C)C3CC[C@@]21C (stereo not given in full) | XF498 | > 100 µM (inactive)
OCC(O)C(OC1OC(CO)C(O)C(O)C1O)c1nn(-c2ccc(Cl)cc2)c2nc3cc(Cl)c(Cl)cc3nc12 (stereo not given) | XF498 | > 100 µM (inactive)

Here are 5 compounds. What values of GI50 were reported for them?
1. C[C@H](C(=O)O)C(=O)NC(=O)N(Cc1ccccc1)N=O
2. COC(=O)C1CC(=O)O[C@H]1c1ccc(OC)c(OC)c1 (stereo not given in full)
3. O=S1(=O)c2ccccc2N=C(c2ccccc2Cl)CC1c1ccc(F)cc1 (stereo not given)
4. c1ccc(C2[C@@H]3CCCc4ccccc4C3=NN2c2ccccc2)cc1 (stereo not given in full)
5. Cc1cc(C)c(C2=NO[C@@H]3[C@H]2C(=O)C=C2N(Cc4ccccc4)CCO[C@@]23O)c(C)c1

1: > 100 µM (inactive); 2: > 100 µM (inactive); 3: 15.6 µM (inactive); 4: 28.2 µM (inactive); 5: > 100 µM (inactive)
